- assayed-target: RalA (residues 1–184, Q72L) (UniProt P11233)
- Sequence (P11233 1-184 Q72L): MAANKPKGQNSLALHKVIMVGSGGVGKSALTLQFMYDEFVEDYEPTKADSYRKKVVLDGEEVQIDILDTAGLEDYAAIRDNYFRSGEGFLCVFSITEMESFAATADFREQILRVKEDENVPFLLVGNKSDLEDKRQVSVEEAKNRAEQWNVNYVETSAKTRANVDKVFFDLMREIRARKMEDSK
- assay-text: scintillation proximity assay (competition); His-tagged wild-type RLIP76 RBD immobilised on SPA beads, fixed [3H]GTP·RalA (100 nM) or [3H]GTP·RalB (250 nM), competitor RBD or peptide titrated; pure competition model, apparent Kd (Ki)
measured-quantity: Kd (µM)
// units = µM; emit number, no label

Query: Kd; subject: RLIP76 RBD WDASQSR mutant (domain or fragment, RLIP76 residues 423-446 (helix α2); Selected by CIS display; source: E. coli, recombinant; cleaved from its tag) ETQAGIKEEIRRQEFLLNSLHRDLQGGIKDLSKWDRAWEVSQILSALRRKLREA
3.02
